Where these numbers come from: ChEMBL document CHEMBL1201862

- Test system: UO-31
- assay notes: NCI tumour cell line growth inhibition, 48 h
The source made the active and inactive calls. Cut-off read from the data, not from the text of the source: active = GI50 up to about 1.1 µM and inactive = higher.
quantity measured: GI50

Here's what some known entries look like.
compound	test target	GI50
Cc1cc(O)c(C(O)c2ccccn2)cc1O (stereo not drawn)	UO-31	19.1 µM (inactive)
COC(=O)/C(=N/NC(C)(C)C)C(C(=O)OC)C(=O)C(=O)Nc1nc2ccc([N+](=O)[O-])cc2s1 (stereo not drawn)	UO-31	> 100 µM (inactive)
O=[N+]([O-])c1ccc(C2=Nn3cnnc3SC2)o1	UO-31	21.4 µM (inactive)

Prompt: Given the entry "Oc1c(Cl)c2nccnc2c2ccccc12" , report its measured GI50.
Response: > 100 µM (inactive)

Prompt: Looking for the measured GI50 of "Nc1ccc(-c2ncc3cc(-c4cccc(-c5cc6cnc(-c7ccc(N)cc7)nc6c6ccccc56)c4)c4ccccc4c3n2)cc1" , can you help?
Response: > 100 µM (inactive)

Prompt: Any idea what GI50 was measured for "c1ccc2cc(-c3cc(-c4cc(-c5ccc6ccccc6c5)on4)no3)ccc2c1" ?
Response: 96.8 µM (inactive)

---

# GI50 per entry
- Tested on: HOP-92
- assay notes: NCI tumour cell line growth inhibition, 48 h
The source made the active and inactive calls. Cut-off read from the data, not from the text of the source: active = GI50 up to about 1.1 µM and inactive = higher.

Below, 5 compounds whose answers are already recorded.
compound	test target	quantity measured	assay result
CCc1ccccc1NC(=O)c1cccc([N+](=O)[O-])c1O	HOP-92	GI50	14.4 µM (inactive)
CCOC(=O)C1(Cc2ccc(C)cc2)Cc2ccc(C)cc2C1=O (stereo not drawn)	HOP-92	GI50	14.6 µM (inactive)
c1ccc(C/C(=N\Nc2nc3ccccc3o2)c2ccccn2)cc1	HOP-92	GI50	0.0281 µM (active)
COC(=O)C(=NNc1ccccc1[N+](=O)[O-])C(=O)OC	HOP-92	GI50	24.1 µM (inactive)
CCOC(=O)Cn1c(=O)[nH]c(=O)c2c1ncn2Cc1ccccc1	HOP-92	GI50	> 100 µM (inactive)

Prompt: Which GI50 value belongs to "Clc1ccc(C2=Cc3nc2c(-c2ccccc2)c2ccc([nH]2)c(-c2ccccc2)c2nc(c(-c4ccccc4)c4ccc([nH]4)c3-c3ccccc3)C=C2)cc1" ?
Response: 61 µM (inactive)

Prompt: Using the record for "Cc1nc(N)c(N2CCN(C(=O)O)CC2)c(O)n1" , report its GI50.
Response: > 100 µM (inactive)

Prompt: What value of measured GI50 is listed for "O=C1Nc2cc(Cl)ccc2C(=O)N2CCC[C@@H]12" ?
Response: > 100 µM (inactive)

---

- System: LOX IMVI
- assay notes: NCI tumour cell line growth inhibition, 48 h
Activity calls are given as the source filed them. Rule as the data show it: active = GI50 up to about 1.1 µM and inactive = higher.
quantity measured: GI50

Would you please look over these solved cases?
compound	GI50
CN(C)CC1(C)CC/C(=C\c2ccc(Cl)cc2)C1=O (centres undefined)	31.3 µM (inactive)
O=C1Nc2c(Cl)cccc2/C1=N/Nc1ccccc1[N+](=O)[O-]	11.8 µM (inactive)
CC(C)(C)c1cc(S(=O)(=O)O)c2oc(-c3ccccc3)cc(=O)c2c1	> 100 µM (inactive)
O=C(O)CN1CCNCCN(CC(=O)O)CC1	17.3 µM (inactive)
NC(=O)c1c(-c2ccccc2)c(-c2ccccc2)cc2c(=O)c3ccccc3[nH]c12	45.5 µM (inactive)

Prompt: Provide value of GI50 for this record tested with LOX IMVI: "COc1c(Cl)nc2ccccc2c1N=[N+]=[N-]"
Response: 48.6 µM (inactive)

Prompt: GI50 of "N=C(N)NS(=O)(=O)c1ccc(NC(=O)c2cccc3cc4ccccc4nc23)cc1" on LOX IMVI?
Response: 51.5 µM (inactive)

Prompt: For LOX IMVI, provide GI50 of C1CCC(CC2CCC(NC3=NCCO3)CC2)CC1 (centres undefined) please.
Response: 16.1 µM (inactive)

Prompt: What GI50 appears in the records for this compound with LOX IMVI? Cc1cccc(CC(Cc2c(C)cccc2C(=O)O)C(=O)O)c1 (centres undefined)
Response: > 100 µM (inactive)

Prompt: Short answer please: GI50, LOX IMVI, entry "N#CCc1nc(-c2cc3ccccc3oc2=O)cs1"
Response: 56.9 µM (inactive)

Prompt: Give GI50 (LOX IMVI) of the following compound: "COc1ccc2nc(/C(N)=C\C#N)ccc2c1"
Response: 36 µM (inactive)

Prompt: Request: GI50, test system LOX IMVI, entry O=C(Cc1ccccc1)NN1C(=O)C(Cl)C1c1ccccc1O (centres undefined)
Response: 12.1 µM (inactive)

Prompt: Missing value: GI50, LOX IMVI, entry "O=C1NC(=S)NC(=O)C1=Cc1ccc[nH]1" . Fill in?
Response: 9.06 µM (inactive)

Prompt: Lab request: please report GI50 under test system LOX IMVI for "CCCC(=O)Oc1cc(OC(=O)CCC)c2c(C)cc(=O)oc2c1"
Response: 40.1 µM (inactive)

Prompt: # value lookup — system LOX IMVI, readout GI50, item C=CCOC1=C(OC(C)=O)C(=O)OC1C1COC(C)(C)O1 (centres undefined)
Response: 18.1 µM (inactive)

Prompt: Please provide the recorded GI50 for "COc1ccc(-c2c(C#N)c(-c3ccc(C)cc3)n(NS(=O)(=O)c3ccc(C)cc3)c(=O)c2C#N)cc1" , tested on LOX IMVI.
Response: 39.3 µM (inactive)

Prompt: Find the measured GI50: item "CCCCSCc1nc2nc(Cl)c(Cl)nc2[nH]1" , target or system LOX IMVI.
Response: 21.7 µM (inactive)

Prompt: Which measured GI50 belongs to "C=C1C(OC)=C(OC)C(=O)c2[nH]c3c(OC)cc([N+](=O)[O-])cc3c21" , tested on LOX IMVI?
Response: > 100 µM (inactive)

Prompt: What GI50 appears in the records for this compound with LOX IMVI? "CC(C)=CC(=O)CC(=O)C(=O)Nc1ccc(C)c(C)c1"
Response: > 100 µM (inactive)
